target: Sialic acid-binding Ig-like lectin 9 (Homo sapiens) (UniProt Q9Y336); experiment: Hs-Siglec9 ALPHAscreen SOP 20170721; parameters: scale not given: direction of the effect not stated beside the values; conditions: 10 µM
Sequence (Q9Y336 whole entry): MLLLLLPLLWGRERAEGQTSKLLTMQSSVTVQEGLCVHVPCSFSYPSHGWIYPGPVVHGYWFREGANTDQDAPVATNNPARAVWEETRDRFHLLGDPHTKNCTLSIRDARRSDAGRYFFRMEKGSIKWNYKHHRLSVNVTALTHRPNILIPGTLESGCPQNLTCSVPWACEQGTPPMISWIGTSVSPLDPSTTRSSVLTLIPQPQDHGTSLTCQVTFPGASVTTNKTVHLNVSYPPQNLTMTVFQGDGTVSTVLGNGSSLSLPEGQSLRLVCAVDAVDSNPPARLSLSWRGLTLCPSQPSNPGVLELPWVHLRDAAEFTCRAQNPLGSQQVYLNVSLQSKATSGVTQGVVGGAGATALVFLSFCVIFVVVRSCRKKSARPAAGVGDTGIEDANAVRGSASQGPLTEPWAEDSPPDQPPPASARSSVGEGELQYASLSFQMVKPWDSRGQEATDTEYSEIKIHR
measure-name: Percent Effect (%)

INSERT INTO results (compound, measure_name, unit_descriptor, readout_value) VALUES
  ('CC(NC(=O)Cc1cccs1)c1nnc2n1CCCCC2 (centres undefined)', 'Percent Effect', '%', 4.55),
  ('CC(C)(O)CN1CCN(C(=O)c2cc(Cl)cc3cccnc23)CC1', 'Percent Effect', '%', 5.39),
  ('CCc1n[nH]c(C2CN(C(=O)c3nc(C)ncc3Cl)CCO2)n1 (centres undefined)', 'Percent Effect', '%', 9.79),
  ('O=C(NCCC1CCCO1)c1ccccc1N1CCOCC1 (centres undefined)', 'Percent Effect', '%', 12.4),
  ('CN(C)C(=O)C1CCCN1CCCNC(=O)c1ccccc1F (centres undefined)', 'Percent Effect', '%', 2.43),
  ('CN(C(=O)NCc1ccncc1)C1CCN(c2ccccc2)C1=O (centres undefined)', 'Percent Effect', '%', 3.74),
  ('CCn1cc(CN2C[C@@H]3CCCN3C[C@@H]2CCSC)c(C)n1', 'Percent Effect', '%', 4.09),
  ('O=C(NCCNc1cnccn1)N1CCN(Cc2cccnc2)CC1', 'Percent Effect', '%', -10.1),
  ('O=C1CC2(CCCCN2C(=O)c2ccsc2)CN1CC1CC1 (centres undefined)', 'Percent Effect', '%', 1.96),
  ('Cc1ccc(CCC(=O)N2CCCC(n3cncn3)C2)c(C)c1 (centres undefined)', 'Percent Effect', '%', 2.16),
  ('Cn1ncc2c1NC(=O)CC2c1ccccc1Cl (centres undefined)', 'Percent Effect', '%', 7.02),
  ('O=C1O[C@@H]2CN(Cc3cccc(F)c3)C[C@@H]2N1CCCN1CCOCC1', 'Percent Effect', '%', 9.62),
  ('O=C1CC(c2cccc(O)c2)c2c(c(C(=O)O)cn2-c2ccccc2)N1 (centres undefined)', 'Percent Effect', '%', 1.46),
  ('Cn1cc(CN2CC[C@H](O)[C@@H]2Cc2ccncc2)cn1', 'Percent Effect', '%', -9.45),
  ('COCCC(=O)N1CC[C@@H](N(C)C)[C@@H]1Cc1ccccc1', 'Percent Effect', '%', 4.93),
  ('O=C1CCC2(CCN(Cc3nccs3)CC2)N1Cc1ccccc1', 'Percent Effect', '%', 1.02),
  ('CCc1nc(C2CCCN2Cc2nc3ccccc3o2)no1 (centres undefined)', 'Percent Effect', '%', 9.09),
  ('CNc1cncc(C2CCCN2C(=O)c2ccc3oc(C)cc3c2)n1 (centres undefined)', 'Percent Effect', '%', -1.38),
  ('Cc1n[nH]c(C)c1NC(=O)CN1CCn2c(nnc2C(C)C)C1', 'Percent Effect', '%', 2.99),
  ('COc1ccc(-c2nc(CN3CCCC3Cn3cccn3)no2)cc1 (centres undefined)', 'Percent Effect', '%', 11.9),
  ('O=C(c1cc(COc2ccc3c(c2)OCO3)[nH]n1)N1CCOCC1', 'Percent Effect', '%', -1.9),
  ('O=C(CN(Cc1cccnc1)CC1CCCO1)Nc1ccc(F)cc1 (centres undefined)', 'Percent Effect', '%', 0.415),
  ('CC(C)N1CCO[C@H]2CN(C(=O)c3ccc(N(C)C)cc3)C[C@H]21', 'Percent Effect', '%', -9.38),
  ('CC(C)CCN1CCN(Cc2nc(C3CC3)no2)CC1', 'Percent Effect', '%', -0.524);
